All figures here come from paper PMC9340783.

- studySystem: T1, hGITR ECD hFc (Homo sapiens (Human)., UniProt Q9Y5U5, Thr45Ala)
- T1 construct: human GITR (glucocorticoid-induced TNF receptor-related), extracellular domain, Gln26-Glu161 with Thr45Ala, UniProt Q9Y5U5.1; also called human GITR protein; source: FreeStyle 293F, transiently transfected, purified by protein A
- T1 sequence (Q9Y5U5 26-161 T45A): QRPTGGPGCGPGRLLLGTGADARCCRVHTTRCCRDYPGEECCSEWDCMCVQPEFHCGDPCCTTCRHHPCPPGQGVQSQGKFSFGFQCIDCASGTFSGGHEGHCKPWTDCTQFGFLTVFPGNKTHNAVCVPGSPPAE
- measurementNotes: SPR; Biacore T200; hGITR ECD hFc immobilised on a Series S CM5 chip; antibody 0, 3.125, 6.25, 12.5, 25 and 50 nM; association 180 s, dissociation 600 s
- conditionSet: both partners purified
pKd: −log10 of the molar value.

binder	pKd
hab070 (antibody, V domains shown, 3503‐hab070‐VH; 3503‐hab070‐Vk; Whole antibody, human IgG1 heavy chain constant region, human kappa light chain constant region; source: FreeStyle 293F, transiently co-transfected, purified from culture supernatant) VH: QVQLVESGGGVVQPGRSLRLSCAASGFTFSSYGMHWVRQAPGKGLEWVAVIWYETSNKFYVDSVKGRFTISRDNSKNTLYLQMNSLRAEDTAVYYCARYGASSGWYWYFDLWGRGTLVTVSS VL: DIQLTQSPSFLSASVGDRVTITCRASQGISSFLAWYQQKPGKAPKLLIYAASTLQSGVPSRFSGSGSGTEFTLTISSLQPEDFATYCCQQLNSYPFTFGQGTKLEIK	9.60
hab064 (antibody, V domains shown, 3503‐hab064‐VH; 3503‐hab064‐Vk; Whole antibody, human IgG1 heavy chain constant region, human kappa light chain constant region; source: FreeStyle 293F, transiently co-transfected, purified from culture supernatant) VH: QVQLVESGGGVVQPGRSLRLSCAASGFTFSSYGMHWVRQAPGKGLEWVAVIWYETSNKYYADSVKGRFTISRDNSKNTLYLQMNNLRAEDTAVYYCARYGGNSGWYWYFDLWGRGTLVTVSS VL: DIQLTQSPSFLSASVGDRVTITCRASQGISSFLAWYQQKPGTAPKLLIYAASTLQSGVPSRFSGSGSGTEFTLTISSLQPEDFATYCCQQLNSYPFTFGQGTKLEIK	9.23
Tab9H6v3 (antibody, V domains shown, heavy chain variable region of clone 9H6v3 (AMGEN INC.); light chain variable region of clone 9H6v3 (AMGEN INC.)) VH: QVQLVESGGGVVQPGRSLRLSCVASGFTFSSYGMHWIRQAPGKGLEWVAVIWYEGSNKYYAESVKGRFTISRDNSKNTLYLQMNSLRAEDTAVYYCARGGRLGKDYYSGMDVWGQGTTVTVSS VL: DIQMTQSPSSLSASVGDRVTITCRASQGIRNDLGWYQQKPGKAPKRLIYATSSLQSGVPSRFSGSGSGTEFTLTISSLQPEDFATYYCLQHNTYPWTFGQGTKVEIK	9.87
hab070e1 (antibody, V domains shown, as the VH of m14 (3503‐hab070‐VH); 3503‐hab070‐Vk(C2Y); the substitution is against the VL of m14 (Cys in FR3 of VL); position not given; Whole antibody, human IgG1 heavy chain constant region, human kappa light chain constant region; also called hab70e1; source: FreeStyle 293F, transiently co-transfected, purified from culture supernatant) VH: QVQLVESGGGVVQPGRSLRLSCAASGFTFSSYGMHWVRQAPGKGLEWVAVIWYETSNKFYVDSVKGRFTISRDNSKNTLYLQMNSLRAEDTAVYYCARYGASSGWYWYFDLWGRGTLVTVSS VL: DIQLTQSPSFLSASVGDRVTITCRASQGISSFLAWYQQKPGKAPKLLIYAASTLQSGVPSRFSGSGSGTEFTLTISSLQPEDFATYYCQQLNSYPFTFGQGTKLEIK	9.27
hab076 (antibody, V domains shown, 3503‐hab076‐VH; 3503‐hab076‐Vk; Whole antibody, human IgG1 heavy chain constant region, human kappa light chain constant region; source: FreeStyle 293F, transiently co-transfected, purified from culture supernatant) VH: QVQLVESGGGVVQPGRSLRLSCAASGFTFSSYGMHWVRQAPGKGLEWVAVIWYETSNKYYADSVKGRFTISRDNSKNTLYLQMNSLRAEDTAVYYCARYGASSGWYWYFDLWGRGTLVTVSS VL: DIQLTQSPSFLSASVGDRVTITCRASQGISSYLAWYQQKPGKAPKLLIYAASTLQSGVPSRFSGSGSGTEFTLTISSLQPEDFATYCCQQLNSYPFTFGQGTKLEIK	8.99
